target: human NaV 1.8 (Homo sapiens, UniProt Q9Y5Y9); test: E-VIPR assay detecting and measuring NaV inhibition properties; assay type: cell-based; details: HEK cells expressing truncated human NaV 1.8; in the presence of human serum (compound numbers followed by *); read-out: IC50 in the E-VIPR Assay, performed in the presence of human serum
Sequence (Q9Y5Y9 126-399 limits assumed): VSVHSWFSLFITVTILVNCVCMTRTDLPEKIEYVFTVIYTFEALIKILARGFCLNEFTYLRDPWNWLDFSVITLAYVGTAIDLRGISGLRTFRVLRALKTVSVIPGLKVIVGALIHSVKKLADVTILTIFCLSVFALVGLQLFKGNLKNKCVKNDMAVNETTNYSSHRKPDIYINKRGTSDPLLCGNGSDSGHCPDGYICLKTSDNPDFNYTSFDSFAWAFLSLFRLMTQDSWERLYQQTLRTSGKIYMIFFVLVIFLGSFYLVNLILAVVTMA
Sequence (Q9Y5Y9 660-890 limits assumed): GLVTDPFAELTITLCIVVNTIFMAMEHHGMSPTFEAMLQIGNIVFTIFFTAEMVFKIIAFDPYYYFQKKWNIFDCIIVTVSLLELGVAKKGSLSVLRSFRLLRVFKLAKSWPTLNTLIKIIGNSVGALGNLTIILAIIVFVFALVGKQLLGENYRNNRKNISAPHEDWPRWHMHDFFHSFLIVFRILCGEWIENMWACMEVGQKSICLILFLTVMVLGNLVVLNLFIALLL
Sequence (Q9Y5Y9 1148-1722 limits assumed): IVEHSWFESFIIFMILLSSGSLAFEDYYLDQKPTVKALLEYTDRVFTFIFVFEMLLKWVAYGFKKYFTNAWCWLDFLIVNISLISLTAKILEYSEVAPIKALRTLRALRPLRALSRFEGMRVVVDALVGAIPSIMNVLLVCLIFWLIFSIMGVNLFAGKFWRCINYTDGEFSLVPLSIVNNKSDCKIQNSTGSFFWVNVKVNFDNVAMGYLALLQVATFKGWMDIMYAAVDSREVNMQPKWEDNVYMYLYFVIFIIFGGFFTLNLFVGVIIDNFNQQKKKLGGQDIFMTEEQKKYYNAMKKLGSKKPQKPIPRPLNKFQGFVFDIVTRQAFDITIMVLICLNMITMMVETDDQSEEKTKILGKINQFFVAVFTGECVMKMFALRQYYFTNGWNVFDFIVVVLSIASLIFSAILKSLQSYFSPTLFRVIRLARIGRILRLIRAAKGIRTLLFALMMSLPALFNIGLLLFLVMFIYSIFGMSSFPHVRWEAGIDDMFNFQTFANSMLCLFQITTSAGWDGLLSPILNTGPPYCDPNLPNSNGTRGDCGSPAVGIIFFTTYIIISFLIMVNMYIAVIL
pIC50: −log10 of the molar value.

>  <compound>
COc1c([C@H]2[C@H](C(=O)Nc3ccnc([S+](C)[O-])c3)O[C@@](C)(C(F)(F)F)[C@H]2C)ccc(F)c1F (single isomer, unassigned) [Compound 9]

>  <pIC50>
> 8.00

$$$$
>  <compound>
COc1c(C2CC(C)(C(F)(F)F)OC2C(=O)Nc2ccnc(C(O)C(C)O)c2)ccc(F)c1F (single isomer, unassigned) [Compound 693]

>  <pIC50>
≤ 6.00

$$$$
>  <compound>
COc1c([C@@H]2[C@@H](C(=O)Nc3ccnc([S+](C)[O-])c3)O[C@](C)(C(F)(F)F)[C@@H]2C)ccc(F)c1F (single isomer, unassigned) [Compound 6]

>  <pIC50>
≤ 6.00

$$$$
>  <compound>
COc1c([C@H]2[C@H](C(=O)Nc3ccnc(C(O)CO)c3)OC(C)(C)[C@H]2C)ccc(F)c1F (relative stereo) [Compound 721]

>  <pIC50>
6.00 to 7.00

$$$$
>  <compound>
COc1c(C2C(C(=O)Nc3ccnc(C(O)CO)c3)OC(C)(C)C2C)ccc(F)c1F (single isomer, unassigned) [Compound 722]

>  <pIC50>
≤ 6.00

$$$$
>  <compound>
C[C@@H]1[C@H](c2ccc(F)c(F)c2OC(F)F)[C@@H](C(=O)Nc2cncc(C#N)c2)O[C@]1(C)C(F)(F)F (single isomer, unassigned) [Compound 69]

>  <pIC50>
≤ 6.00

$$$$
>  <compound>
COc1c(C2C(C(=O)Nc3ccnc(C(O)C(C)O)c3)OC(C)(C(F)(F)F)C2C)ccc(F)c1C (single isomer, unassigned) [Compound 148]

>  <pIC50>
> 8.00

$$$$
>  <compound>
COc1c(C2CC(C)(C(F)(F)F)OC2C(=O)Nc2ccnc(C(O)C(C)O)c2)ccc(F)c1F (single isomer, unassigned) [Compound 696]

>  <pIC50>
7.00 to 8.00

$$$$
>  <compound>
COc1c(C2CC(C)(C(F)(F)F)OC2C(=O)Nc2ccnc(C(O)C(C)O)c2)ccc(F)c1F (single isomer, unassigned) [Compound 695]

>  <pIC50>
≤ 6.00

$$$$
>  <compound>
C[C@@H]1[C@H](c2ccc(F)c(F)c2OC(F)F)[C@@H](C(=O)Nc2ccc(=O)n(C)c2)O[C@]1(C)C(F)(F)F (single isomer, unassigned) [Compound 67]

>  <pIC50>
≤ 6.00

$$$$
>  <compound>
COc1c([C@@H]2[C@@H](C(=O)Nc3ccnc(C(O)CO)c3)O[C@](C)(C(F)(F)F)[C@@H]2C)ccc(F)c1C (single isomer, unassigned) [Compound 136]

>  <pIC50>
≤ 6.00

$$$$
>  <compound>
C[C@@H]1[C@H](c2ccc(F)c(F)c2OC(F)F)[C@@H](C(=O)Nc2cc(S(C)(=O)=O)c[n+]([O-])c2)O[C@]1(C)C(F)(F)F (single isomer, unassigned) [Compound 87]

>  <pIC50>
≤ 6.00

$$$$
>  <compound>
COc1c([C@H]2C[C@@](C)(C(F)(F)F)O[C@@H]2C(=O)Nc2cn(S(C)(=O)=O)nc2C)ccc(F)c1F (stereo in doubt) [Compound 683]

>  <pIC50>
≤ 6.00

$$$$
>  <compound>
C[C@H]1[C@@H](c2ccc(F)c(F)c2OC(F)F)[C@H](C(=O)Nc2cncc(C#N)c2)O[C@@]1(C)C(F)(F)F (single isomer, unassigned) [Compound 70]

>  <pIC50>
6.00 to 7.00

$$$$
>  <compound>
COc1cc(F)ccc1[C@H]1C[C@@](C)(C(F)(F)F)O[C@@H]1C(=O)Nc1ccnc(S(C)(=O)=O)c1 (stereo in doubt) [Compound 713]

>  <pIC50>
≤ 6.00

$$$$
>  <compound>
COc1c(C2C(C(=O)Nc3ccnc(S(C)(=O)=O)c3)OC(C)(C(F)(F)F)C2C)ccc(F)c1F (single isomer, unassigned) [Compound 49]

>  <pIC50>
≤ 6.00

$$$$
>  <compound>
CNCc1cc(NC(=O)[C@@H]2O[C@@](C)(C(F)(F)F)[C@@H](C)[C@H]2c2ccc(F)c(F)c2OC)c(F)cn1 (single isomer, unassigned) [Compound 13]

>  <pIC50>
7.00 to 8.00

$$$$
>  <compound>
C[C@@H]1[C@H](c2ccc(F)c(F)c2OC(F)F)[C@@H](C(=O)Nc2cccnc2)O[C@]1(C)C(F)(F)F (single isomer, unassigned) [Compound 66]

>  <pIC50>
≤ 6.00

$$$$
>  <compound>
COc1c(C2C(C(=O)Nc3ccnc(C(O)C(C)O)c3)OC(C)(C(F)(F)F)C2C)ccc(F)c1C (single isomer, unassigned) [Compound 149]

>  <pIC50>
6.00 to 7.00

$$$$
>  <compound>
COc1c(C2C(C(=O)Nc3ccnc(C(C)(O)CO)c3)OC(C)(C)C2C)ccc(F)c1F (single isomer, unassigned) [Compound 725]

>  <pIC50>
≤ 6.00

$$$$
>  <compound>
C[C@@H]1[C@H](c2ccc(F)c(F)c2OC(F)F)[C@@H](C(=O)Nc2ccnc(CCO)c2)O[C@]1(C)C(F)(F)F (single isomer, unassigned) [Compound 457]

>  <pIC50>
≤ 6.00

$$$$

###

molecular target: UniProt Q9Y5Y9; experiment: E-VIPR assay detecting and measuring NaV inhibition properties; assay type: cell-based; conditions: HEK cells expressing truncated human NaV 1.8; no human serum; read-out: IC50 in the E-VIPR Assay
pIC50: −log10 of the molar value.

>  <compound>
COc1c([C@H]2[C@H](C(=O)Nc3cc(C(N)C(C)(C)OC)ncc3F)O[C@@](C)(C(F)(F)F)[C@H]2C)ccc(F)c1F (single isomer, unassigned)

>  <pIC50>
7.00 to 8.00

$$$$
>  <compound>
COc1c([C@H]2[C@H](C(=O)Nc3ccc(C(N)=O)nc3)O[C@@](C)(C(F)(F)F)[C@H]2C)ccc(F)c1F

>  <pIC50>
> 8.00

$$$$
>  <compound>
COc1c([C@H]2[C@H](C(=O)Nc3ccc(C(=O)O)nc3)O[C@@](C)(C(F)(F)F)[C@H]2C)ccc(F)c1F

>  <pIC50>
> 8.00

$$$$
>  <compound>
COCCOc1cc(NC(=O)C2OC(C)(C(F)(F)F)C(C)C2c2ccc(F)c(F)c2OC)cnn1 (single isomer, unassigned) [Compound 33]

>  <pIC50>
≤ 6.00

$$$$
>  <compound>
COc1c([C@H]2[C@H](C(=O)Nc3ccnc(OC4CCOCC4)c3)O[C@@](C)(C(F)(F)F)[C@H]2C)ccc(F)c1F

>  <pIC50>
7.00 to 8.00

$$$$
>  <compound>
CCOc1c([C@H]2[C@H](C(=O)Nc3ccn4nnnc4c3)O[C@@](C)(C(F)(F)F)[C@H]2C)ccc(F)c1C (stereo in doubt) [Compound 123]

>  <pIC50>
> 8.00

$$$$

###

compounds and their reported pIC50
target: human NaV 1.8 (Homo sapiens, UniProt Q9Y5Y9); experiment: E-VIPR assay detecting and measuring NaV inhibition properties; format: cell-based; settings: HEK cells expressing truncated human NaV 1.8; no human serum; read-out: IC50 in the E-VIPR Assay
pIC50: −log10 of the molar value.
observable: pIC50

>  <compound>
CN=S(C)(=O)c1cc(NC(=O)[C@H]2O[C@](C)(C(F)(F)F)[C@H](C)[C@@H]2c2ccc(F)c(F)c2OC)ccn1 (relative stereo)

>  <testedOn>
human NaV 1.8 (Homo sapiens, UniProt Q9Y5Y9)

>  <observable>
pIC50

>  <recordedMeasurement>
6.00 to 7.00

$$$$
>  <compound>
Cc1nn(C(F)F)cc1NC(=O)[C@@H]1O[C@@](C)(C(F)(F)F)[C@@H](C)[C@H]1c1ccc(F)c(F)c1CN1CC2(COC2)C1

>  <testedOn>
human NaV 1.8 (Homo sapiens, UniProt Q9Y5Y9)

>  <observable>
pIC50

>  <recordedMeasurement>
7.00 to 8.00

$$$$
>  <compound>
COc1c([C@H]2[C@H](C(=O)Nc3cc(C(O)CO)ncc3C)O[C@@](C)(C(F)(F)F)[C@H]2C)ccc(F)c1F (single isomer, unassigned)

>  <testedOn>
human NaV 1.8 (Homo sapiens, UniProt Q9Y5Y9)

>  <observable>
pIC50

>  <recordedMeasurement>
> 8.00

$$$$
>  <compound>
COc1c([C@H]2[C@H](C(=O)Nc3ccc(NC(C)=O)nc3)O[C@@](C)(C(F)(F)F)[C@H]2C)ccc(F)c1F

>  <testedOn>
human NaV 1.8 (Homo sapiens, UniProt Q9Y5Y9)

>  <observable>
pIC50

>  <recordedMeasurement>
7.00 to 8.00

$$$$
>  <compound>
COc1c([C@H]2[C@H](C(=O)Nc3ccnc(N4CCCNCC4=O)c3)O[C@@](C)(C(F)(F)F)[C@H]2C)ccc(F)c1F

>  <testedOn>
human NaV 1.8 (Homo sapiens, UniProt Q9Y5Y9)

>  <observable>
pIC50

>  <recordedMeasurement>
7.00 to 8.00

$$$$
>  <compound>
COc1c(C2C(C(=O)Nc3ccn4nnnc4c3)OC(C)(C(F)(F)F)C2C)ccc(F)c1C (single isomer, unassigned) [Compound 134]

>  <testedOn>
human NaV 1.8 (Homo sapiens, UniProt Q9Y5Y9)

>  <observable>
pIC50

>  <recordedMeasurement>
> 8.00

$$$$
>  <compound>
COc1c([C@H]2[C@H](C(=O)Nc3ncn(C)c3C)O[C@@](C)(C(F)(F)F)[C@H]2C)ccc(F)c1F

>  <testedOn>
human NaV 1.8 (Homo sapiens, UniProt Q9Y5Y9)

>  <observable>
pIC50

>  <recordedMeasurement>
≤ 6.00

$$$$
>  <compound>
Cc1nn(C(F)F)cc1NC(=O)[C@@H]1O[C@@](C)(C(F)(F)F)[C@@H](C)[C@H]1c1ccc(F)c(F)c1CN(C)C

>  <testedOn>
human NaV 1.8 (Homo sapiens, UniProt Q9Y5Y9)

>  <observable>
pIC50

>  <recordedMeasurement>
7.00 to 8.00

$$$$
>  <compound>
Cc1nn(C(F)F)cc1NC(=O)[C@@H]1O[C@@](C)(C(F)(F)F)[C@@H](C)[C@H]1c1ccc(F)c(F)c1OCCN1CCOCC1

>  <testedOn>
human NaV 1.8 (Homo sapiens, UniProt Q9Y5Y9)

>  <observable>
pIC50

>  <recordedMeasurement>
7.00 to 8.00

$$$$
>  <compound>
C[C@H]1[C@@H](c2ccc(F)c(F)c2OCCO)[C@H](C(=O)Nc2ccnnc2)O[C@@]1(C)C(F)(F)F

>  <testedOn>
human NaV 1.8 (Homo sapiens, UniProt Q9Y5Y9)

>  <observable>
pIC50

>  <recordedMeasurement>
> 8.00

$$$$
>  <compound>
COCC(NC(C)C)c1ccc(NC(=O)[C@@H]2O[C@@](C)(C(F)(F)F)[C@@H](C)[C@H]2c2ccc(F)c(F)c2OC)cn1 (single isomer, unassigned) [Compound 421]

>  <testedOn>
human NaV 1.8 (Homo sapiens, UniProt Q9Y5Y9)

>  <observable>
pIC50

>  <recordedMeasurement>
6.00 to 7.00

$$$$
>  <compound>
C[C@H]1[C@@H](c2ccc(F)c(F)c2OCC2CC(F)(F)C2)[C@H](C(=O)Nc2ccnc(CO)c2)O[C@@]1(C)C(F)(F)F

>  <testedOn>
human NaV 1.8 (Homo sapiens, UniProt Q9Y5Y9)

>  <observable>
pIC50

>  <recordedMeasurement>
7.00 to 8.00

$$$$
